tested.target: CYP3A4 (P450 3A4) (Homo sapiens)
Sequence (P08684 whole entry): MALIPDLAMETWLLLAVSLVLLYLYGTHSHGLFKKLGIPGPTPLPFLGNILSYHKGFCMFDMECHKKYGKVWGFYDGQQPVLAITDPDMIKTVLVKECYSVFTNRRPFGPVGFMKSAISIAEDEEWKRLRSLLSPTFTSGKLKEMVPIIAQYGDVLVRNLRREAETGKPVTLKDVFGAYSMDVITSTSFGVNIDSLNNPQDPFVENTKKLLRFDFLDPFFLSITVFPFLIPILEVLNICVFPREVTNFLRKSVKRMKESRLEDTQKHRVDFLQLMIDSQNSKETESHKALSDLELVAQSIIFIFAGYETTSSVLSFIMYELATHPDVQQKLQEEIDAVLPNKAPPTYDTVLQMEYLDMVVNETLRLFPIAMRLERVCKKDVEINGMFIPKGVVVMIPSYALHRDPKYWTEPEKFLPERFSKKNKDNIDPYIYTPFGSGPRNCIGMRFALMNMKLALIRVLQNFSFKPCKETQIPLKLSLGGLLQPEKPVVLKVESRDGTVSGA
procedure.summary: Inhibition of P450 3A4-dependent midazolam 4-hydroxylation
experimental.conditions: human, pH 7.4, probe midazolam (0.1 mM), 4-hydroxylation
property.measured: pIC50
Give only the number. pIC50 is defined as minus log10 of concentration in molar units.

Can you look up pIC50 on CYP3A4 (P450 3A4) (Homo sapiens) for COc1cccc(-c2cc(=O)c3c(O)cc(O)cc3o2)c1 [3’M57DHF, 3’-methoxy-5,7-dihydroxyflavone] ? 4.80

---

tested.target: human P450 1A2 (Homo sapiens, UniProt P05177)
Sequence (P05177 1-516): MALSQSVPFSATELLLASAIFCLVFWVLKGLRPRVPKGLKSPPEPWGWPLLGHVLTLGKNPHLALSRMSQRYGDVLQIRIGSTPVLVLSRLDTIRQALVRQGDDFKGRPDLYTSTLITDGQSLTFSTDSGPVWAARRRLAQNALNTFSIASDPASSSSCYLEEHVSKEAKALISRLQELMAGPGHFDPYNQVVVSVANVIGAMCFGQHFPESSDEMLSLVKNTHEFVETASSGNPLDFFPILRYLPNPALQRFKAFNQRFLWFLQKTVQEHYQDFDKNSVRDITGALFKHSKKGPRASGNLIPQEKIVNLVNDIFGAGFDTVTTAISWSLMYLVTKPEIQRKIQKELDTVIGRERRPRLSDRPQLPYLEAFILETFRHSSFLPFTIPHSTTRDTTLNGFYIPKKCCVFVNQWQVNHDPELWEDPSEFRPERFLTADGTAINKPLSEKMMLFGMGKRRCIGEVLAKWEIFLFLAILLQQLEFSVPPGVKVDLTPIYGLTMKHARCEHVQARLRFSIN
Answer each item with its documented IC50.
Report the value in nM with no unit label.

Fill in: IC50 of C#CCOc1ccccc1-c1cc(=O)c2ccc3ccccc3c2o1 is ___ 240

What about COc1ccc(-c2cc(=O)c3c(O)cc(O)cc3o2)cc1OC [3’4’DM57DHF, 3’4’-dimethoxy-5,7-dihydroxyflavone] ? 11

Same read-out for C#CCOc1ccc(-c2cc(=O)c3ccc4ccccc4c3o2)cc1 ? 100

---

tested.target: human P450 2C9 (Homo sapiens)
Sequence (P11712 whole entry): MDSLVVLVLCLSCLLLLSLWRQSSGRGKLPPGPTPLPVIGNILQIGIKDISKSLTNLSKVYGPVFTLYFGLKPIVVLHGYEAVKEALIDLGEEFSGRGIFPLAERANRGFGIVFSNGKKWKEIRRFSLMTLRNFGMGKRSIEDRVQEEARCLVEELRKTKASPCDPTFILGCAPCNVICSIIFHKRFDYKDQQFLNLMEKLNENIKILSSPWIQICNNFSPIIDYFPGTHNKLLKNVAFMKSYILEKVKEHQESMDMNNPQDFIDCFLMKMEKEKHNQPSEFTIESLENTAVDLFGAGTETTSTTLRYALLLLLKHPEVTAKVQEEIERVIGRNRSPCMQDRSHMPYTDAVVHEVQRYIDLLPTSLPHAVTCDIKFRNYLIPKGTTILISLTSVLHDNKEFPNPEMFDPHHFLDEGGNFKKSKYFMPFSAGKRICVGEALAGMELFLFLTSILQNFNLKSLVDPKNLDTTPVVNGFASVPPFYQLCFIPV
procedure.summary: Inhibition of P450 2C9-dependent flurbiprofen 4’-hydroxylation
property.measured: log10(IC50) (log10 of the value in nM)
All values: base-10 log of IC50 in nM.

Entry COc1ccc(-c2cc(=O)c3ccc(O)c(O)c3o2)cc1OC [3’4’DM78DHF, 3’,4’-dimethoxy-7,8-dihydroxyflavone] : reported log10(IC50) = ? 4.40

What do you have for O=c1cc(-c2ccccc2)oc2cc(O)cc(O)c12 [57DHF, 5,7-dihydroxyflavone] ? 2.90

Moving on to the next molecule: O=c1cc(-c2ccccc2)oc2ccccc12 [flavone] 4.15

Similarly, O=c1c(O)c(-c2ccccc2)oc2cc(O)cc(O)c12 [357THF, 3,5,7-trihydroxyflavone] ? 2.30

# repeat for COc1ccc(-c2cc(=O)c3c(O)cc(O)cc3o2)cc1 [4’M57DHF, 4’-methoxy-5,7-dihydroxyflavone] 2.81

These data points were gathered from paper PMC3072440.
